Values compiled from patent US5389687A.

- Tested on: conscious spontaneous hypertensive rats (SHR)
- assayOverview: Effect on blood pressure after i.v. administration to conscious SHR
- Assay type: in vivo
- recordedConditions: Rattus norvegicus, iv, 0.5 h; 30 min. after treatment, i.v., conscious SHR; read-out: Blood Pressure ED25 (i.v. dose required to decrease pressure 25%)
Class key for ED25 values: Low = under 4 mg/kg, Medium = from 4 mg/kg up to 6 mg/kg, High = 6 mg/kg and over

compound	studySystem	discreteLabel
CN(C)C1CCc2cccc(C(N)=O)c2C1 (centres unmarked)	conscious spontaneous hypertensive rats (SHR)	High
CCCNC1CCc2cccc(Cl)c2C1 (centres unmarked)	conscious spontaneous hypertensive rats (SHR)	Medium
CN(C)C1CCc2cccc(Cl)c2C1 (centres unmarked)	conscious spontaneous hypertensive rats (SHR)	Low
CCCN(C)C1CCc2cccc(Cl)c2C1 (centres unmarked)	conscious spontaneous hypertensive rats (SHR)	Low
CNC1CCc2cccc(Cl)c2C1 (centres unmarked)	conscious spontaneous hypertensive rats (SHR)	Low
CCCN(CCC)C1CCc2cccc(Cl)c2C1 (centres unmarked)	conscious spontaneous hypertensive rats (SHR)	High
CCN(C)C1CCc2cccc(Cl)c2C1 (centres unmarked)	conscious spontaneous hypertensive rats (SHR)	Low
CCCN(CCC)C1CCc2cccc(C(=O)OC)c2C1 (centres unmarked)	conscious spontaneous hypertensive rats (SHR)	Medium

Please examine the following record next.
Which band does CCCN(CCC)C1CCc2cccc(C(N)=O)c2C1 (centres unmarked) fall in? Medium
